B1: glmS ribozyme (parent)
chain: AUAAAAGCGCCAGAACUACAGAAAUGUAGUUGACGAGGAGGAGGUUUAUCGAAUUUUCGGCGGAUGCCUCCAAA

Variants of: B1
Measurement protocol: self-cleavage kobs at 10000 uM GlcN6P; higher = faster cleavage; RNA array
Run conditions: with glucosamine-6-phosphate
Fewer inactive variants are shown than the library holds.
Tick t if self-cleavage kobs at 10000 uM GlcN6P is 0.0004 s⁻¹ or greater. Tick f if self-cleavage kobs at 10000 uM GlcN6P is less than 0.0004 s⁻¹.

Completed entries (count: 6):
AUAAAAGCGCCAGACCUACAGAAAUGUAGUUGACGAGGAGGAGGUUUAUCGAAUAUUCGGGGGAUGCCUCCAAA [A15C U55A C61G]: f
AUAAAAGCGCCAGAACUACAGAAAUGUAGUUGACGAGGAGGAGGUUUAUUGAAUUUUUGGCGGAUGCCUCCAAA [C50U C58U]: f
AUAAAAGCGCCAGAGCUACAGAAAUGUAGUUGACGAGGAGGAGGUUUAUCGAAUUUUCGGCGUGUGCCUCCAAA [A15G G63U A64G]: f
AUAAAAGCGACAGAACUACAGAAAUGUAGUUGACGAGGAGGAGGUUUAUCGAAUUUUCGGCUGAUGCCUCCAAA [C10A G62U]: f
AUAAAAGGGCUAGAUCUACAGAAAUGUACUUGACGAGGAGUAGGUUUAUCGAAUUUUCGGCGGAUGCCUCCAAA [C8G C11U A15U G29C G41U]: f
AUAAAAGCGCCAGAACUACAGAAAUGUAGUUGACGAGGAGGAGGUUUUUCGAAUUUUCGUCGGAUGCCUCCAAA [A48U G60U]: f

Task: Could you tell me if the measured self-cleavage kobs at 10000 uM GlcN6P of AUAAAAGCGCCAGAACUACAGAAAUGUAGUUGACAAGGAGGAGGUUUCUCGAAUUUUCGGCGGAUGCCUCCAAA [G35A A48C] reaches 0.0004 s⁻¹ or more?
Output: f

Task: hey, is self-cleavage kobs at 10000 uM GlcN6P for this one >= 0.0004 s⁻¹? AUAAAAGCGCCAGAACUACAGAAAUGUAGUUGACGCGGAGAAGGUUUAUCGAAUUGUCGACGGAUGCUUCCAAA [A36C G41A U56G G60A C68U]
Output: f

Task: Say whether AUAAAAGCGCCAGAACUACAGAAAUGUAGUUGCCGAGGAGGAAAUUUAUCGAAUUUUCGGCGGAUGCCUCCAAA [A33C G43A G44A] shows self-cleavage kobs at 10000 uM GlcN6P of 0.0004 s⁻¹ or more.
Output: f

Task: Please tell me: is the variant AUAAAAGCGCCAGAACUACAGAAAUGUAUGUGAUGAGGAGGAGGUUUAUCGAAUUUUCGGCGGAUGCCUCCAAA [G29U U30G C34U] at or over 0.0004 s⁻¹ in terms of self-cleavage kobs at 10000 uM GlcN6P?
Output: f

Task: Could you please find out whether AUAAAAGCGCCAGAACUACAGAAAUGUAGUUGACAAGGAGGAGGUUUAUCGAAUUUUCGGCGGGUGCCUGCAAA [G35A A64G C70G] has self-cleavage kobs at 10000 uM GlcN6P that meets 0.0004 s⁻¹ or exceeds it?
Output: f

Task: Does self-cleavage kobs at 10000 uM GlcN6P meet or surpass 0.0004 s⁻¹ for AUAAAAGCGUCAGAACUACAGAAAUGUAGUUGACGAGGAGGAAGUUUAUCGAAUUUUCGGCGGAUGCCUCUAAA [C10U G43A C71U] ?
Output: f

Task: Is self-cleavage kobs at 10000 uM GlcN6P at least 0.0004 s⁻¹? Consider AUAAAAGCGCCAGAACUACAGAAAUGUAGUUGACGAGGAGGACGUUUAUCGACUUCUCGGCGGAUGCCUCCAAA [G43C A53C U56C]
Output: f

Task: Can AUAAAAGCGCCAGAACUACAGAAAUGUAGUUGACGAAGAGGAGGUUUAACGGAUUUUCGGCGGAUGCCUCCAAA [G37A U49A A52G] be said to have self-cleavage kobs at 10000 uM GlcN6P at or above 0.0004 s⁻¹?
Output: f

Task: Determine whether measured self-cleavage kobs at 10000 uM GlcN6P meets or exceeds 0.0004 s⁻¹ for AUAAAAGCGCCACAACUACAGAAAUGUAGUUGACGCGGAGGAGGUUUAUCGAACUUUCGGCGGAUGCCUCCAAA [G13C A36C U54C]
Output: f

Task: Could you verify whether the entry AUAAAAGCGCCGGAACUACAGAAAUGUAUUUGACGAGGAGGAGAUUUAUCGAAUUUUCGGCGAAUGCCUCCAAA [A12G G29U G44A G63A] shows self-cleavage kobs at 10000 uM GlcN6P of no less than 0.0004 s⁻¹?
Output: f
